B1: ZNF263 (parent)
chain: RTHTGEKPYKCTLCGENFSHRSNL

Variants of: B1
ASSAY_NAME: protein stability index of a GFP-peptide fusion (GPS, HEK-293T) (PSI 1-6); higher = more stable;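 further: lentivirally expressed fusions sorted by FACS into six bins by GFP to DsRed ratio, PSI derived from sequencing read proportions per bin multiplied by bin number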
DETAILS: c terminus: a fixed tail appended
Label No if protein stability index falls below 2; label Yes in every other case.

The following variants have reported results that may help.
INSERT INTO measurements (mutant, discrete_label) VALUES
  ('H3A', 'Yes'),
  ('T4I', 'No'),
  ('Y9V', 'Yes'),
  ('E6K', 'No'),
  ('G15W', 'No'),
  ('C11G', 'Yes'),
  ('K10L', 'No'),
  ('F18I', 'Yes'),
  ('F18A', 'No'),
  ('H20A', 'Yes');

Does the reported protein stability index for Y9W fall at or above the 2 mark?
No

Does the reported protein stability index for Y9H fall at or above the 2 mark?
Yes

Does the reported protein stability index for T12Y fall at or above the 2 mark?
No

Does the reported protein stability index for L24E fall at or above the 2 mark?
Yes
